Target: Focal adhesion kinase 1 (Homo sapiens) (UniProt Q05397)
Sequence (Q05397 whole entry, looked up): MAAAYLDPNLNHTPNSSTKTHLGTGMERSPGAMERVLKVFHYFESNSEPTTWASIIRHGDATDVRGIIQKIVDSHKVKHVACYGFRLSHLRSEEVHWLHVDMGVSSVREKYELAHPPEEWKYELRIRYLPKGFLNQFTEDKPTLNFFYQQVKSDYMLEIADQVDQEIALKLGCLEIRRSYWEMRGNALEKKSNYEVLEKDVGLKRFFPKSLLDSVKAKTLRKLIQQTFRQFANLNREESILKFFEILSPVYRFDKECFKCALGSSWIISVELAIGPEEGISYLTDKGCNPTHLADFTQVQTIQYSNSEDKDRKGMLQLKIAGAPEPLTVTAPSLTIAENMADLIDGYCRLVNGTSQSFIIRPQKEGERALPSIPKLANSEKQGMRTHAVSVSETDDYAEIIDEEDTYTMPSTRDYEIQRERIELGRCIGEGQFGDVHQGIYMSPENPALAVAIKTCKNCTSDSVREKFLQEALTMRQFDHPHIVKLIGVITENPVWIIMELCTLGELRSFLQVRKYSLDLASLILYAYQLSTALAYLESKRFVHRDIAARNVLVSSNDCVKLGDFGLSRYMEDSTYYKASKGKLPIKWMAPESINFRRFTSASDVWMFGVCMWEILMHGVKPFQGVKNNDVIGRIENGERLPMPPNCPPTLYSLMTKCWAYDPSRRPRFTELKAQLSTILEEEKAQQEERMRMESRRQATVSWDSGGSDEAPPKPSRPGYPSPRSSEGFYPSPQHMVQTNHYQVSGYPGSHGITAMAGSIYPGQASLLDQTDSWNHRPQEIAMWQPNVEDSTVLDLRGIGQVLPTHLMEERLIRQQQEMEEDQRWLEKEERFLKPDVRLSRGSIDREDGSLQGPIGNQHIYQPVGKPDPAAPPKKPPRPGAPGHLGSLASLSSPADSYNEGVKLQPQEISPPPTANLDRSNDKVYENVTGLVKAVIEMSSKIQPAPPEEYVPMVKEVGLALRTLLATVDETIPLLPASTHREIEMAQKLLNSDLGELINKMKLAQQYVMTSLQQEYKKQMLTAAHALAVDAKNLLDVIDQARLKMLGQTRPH
Assay: small-molecule microarray binders of FAK, primary screen, biochemical, 635/667 nm fluorescence, BSA, DTT (AID 1130);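 further: composite of spot emission at 667 nm and signal to noise over triplicate slides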
Details: PTK2 binding, 635 nm fluorescence, higher = more signal
measured_property: composite z-score
Answers are plain numbers.

These solved cases illustrate the format of a correct answer.
COc1cccc(/C=C(\C#N)C(=O)Nc2c(C)n(C)n(-c3ccccc3)c2=O)c1 :: 0.268
NC(=O)[C@H]1[C@@H]2C(=O)O[C@@H](c3ccccc3)[C@@H](c3ccccc3)N2[C@@H](c2ccc(O)cc2)[C@]12C(=O)Nc1ccc(C#CC3=CCCCC3)cc12 :: 0.985
O=C(CS)NCCCCCCNC(=O)[C@@H]1C[C@@H]2C(=O)NCC(=O)N2[C@@H]1c1ccc(O)cc1 :: 0.0509
CN1C(=O)C2C(C1=O)C1C=C(CCCO)C2C(C2CC2)N1Cc1cc2c(cc1Br)OCO2 (stereo unspecified) :: 0.481

Give one value of composite z-score per listed molecule.
1. COc1cc(CO)cc(I)c1O[C@H]1C=C(C(=O)NCCO)C[C@@H](NCC2CCCCC2)[C@@H]1O
2. COC(=O)[C@@]1(Cc2ccc(F)cc2)[C@H]2c3cc(C(=O)N4CCCC4)n(C)c3C[C@H]2CN1C(=O)c1ccccc1
3. CCOC(=O)C1=CC[C@@H](c2ccccc2)N(S(=O)(=O)c2ccc(C)cc2)[C@H]1C=Cc1ccccc1
4. CCC(CC)C(O)C1C=CC2C(=O)N(c3ccccc3)C(=O)C2N1Nc1ccc([N+](=O)[O-])cc1 (stereo unspecified)
5. CC(C)CNC(=O)[C@@]1(C)c2ccccc2C(=O)N(Cc2cc(C(F)(F)F)cc(C(F)(F)F)c2)[C@H]1c1ccc(CO)cc1
6. Cc1c(NC(=O)/C(C#N)=C/c2ccccc2Cl)c(=O)n(-c2ccccc2)n1C
7. CCCCC(=O)N(CCN1CCOCC1)[C@@H]1CC(C(=O)NCCO)=C[C@H](Oc2c(I)cc(CO)cc2OC)[C@H]1O

[0.211, 0.746, 0.289, 1.19, -0.342, -0.0387, -0.444]

Give one value of composite z-score per listed molecule.
1. CC(C)CNC(=O)[C@@H]1c2ccccc2C(=O)N(C2CCCCC2)[C@H]1c1ccc(CO)cc1
2. O=C(NCCN1CCOCC1)[C@@H]1c2ccccc2C(=O)N(Cc2ccccc2)[C@H]1c1ccc(CO)cc1
3. CC(C)CNC(=O)[C@@]1(c2ccc([N+](=O)[O-])cc2)CC(=O)N(C2CCCCC2)[C@@H]1c1ccc(CO)cc1
4. CN1C(=O)C2C(C1=O)C1C=C(CCCO)C2C(c2cccs2)N1Cc1cc2c(cc1Br)OCO2 (stereo unspecified)
5. COCCOC(=O)N1C(=O)[C@@]2(c3cc(C#CCNC(N)=O)ccc31)[C@H](c1ccc(OCCO)cc1)N1[C@H](c3ccccc3)[C@H](c3ccccc3)OC(=O)[C@H]1[C@@H]2C(N)=O
6. C=C[C@H](C)[C@H](OC(=O)Nc1ccc(OC)cc1)c1ccc(OCCO)cc1
7. COc1cc2c(cc1O)C(c1cccs1)N(Cc1sc3ccccc3c1Cl)CC2 (stereo unspecified)
8. CC(C)[Si]1(C(C)C)OCc2cc(-c3ccc(-c4ccc(Cl)c(Cl)c4)o3)nc(CCc3ccccc3)c21

1: -0.292; 2: -0.668; 3: -0.0282; 4: 1.07; 5: 0.31; 6: 0.0457; 7: 0.379; 8: 0.164

Give one value of composite z-score per listed molecule.
1. COC(=O)C(CC#Cc1ccc2c(c1)[C@]1(C(=O)N2)[C@H](c2ccc(OCCO)cc2)N2[C@H](c3ccccc3)[C@H](c3ccccc3)OC(=O)[C@H]2[C@@H]1C(=O)N1CCN(c2ncccn2)CC1)C(=O)OC
2. COC(=O)c1c2oc(c1C(=O)OC)C(=O)N1CCC[C@H]1Cn1nncc1CN(Cc1ccccc1)C(=O)N[C@H](CO)CC2
3. CN(C)CCCNC(=O)[C@@H]1c2ccccc2C(=O)N(C2CCCCC2)[C@H]1c1ccc(CO)cc1
4. COC(=O)C1=CC(CCCO)=CC(C)N(Cc2cccc(OC(F)(F)F)c2)C=C1C(=O)OC (stereo unspecified)
5. O=C1OCC=C[C@H]2OC34C=CCN(c5ccc6ccccc6c5)C(=O)[C@H]3N(CCCCCO)C(=O)[C@@H]4[C@@H]12 (stereo partly specified)
6. COC(=O)[C@@]1(Cc2ccc(OC)cc2)[C@H]2c3cc(C(=O)N4CCCC4)n(Cc4ccc(OC(F)(F)F)cc4)c3C[C@H]2CN1C(=O)c1ccccc1
7. COCCOC(=O)N1C(=O)[C@@]2(c3cc(C#CC4(O)CCCCCC4)ccc31)[C@H](c1ccc(OCCO)cc1)N1[C@H](c3ccccc3)[C@H](c3ccccc3)OC(=O)[C@H]1[C@@H]2C(=O)Nc1nc2ccccc2s1

1. -0.528
2. 0.291
3. -0.0457
4. 0.955
5. 1.05
6. -0.438
7. 0.2

Give one value of composite z-score per listed molecule.
1. CCCCCN1CC=CC23O[C@@H]4/C=C\CCC(C)OC(=O)C4[C@H]2C(=O)N(CCCCCCO)[C@@H]3C1=O (stereo partly specified)
2. COc1cc2c(cc1O)C(c1ccc(CN3CCCC3)cc1)N(C)CC2 (stereo unspecified)
3. COCC(=C=CC[C@@H](O)c1cccc(OCCO)c1)CCO
4. COC(=O)C1=CC(CCCO)=CC(c2ccc(CN3CCCC3)cc2)N(Cc2cc3c(cc2Br)OCO3)C=C1C(=O)OC (stereo unspecified)
5. C=C/C=C/[C@@H]1C(=C)CN([C@@H](Cc2ccccc2)C(=O)OC)[C@H]1[C@@H](O)Cc1ccccc1

1: 0.0767; 2: -0.489; 3: -0.128; 4: 0.473; 5: 0.507
